- System: Enterococcus faecium
- ASSAY_NOTES: In vitro minimum inhibitory concentration against vancomycin-resistant Enterococcus faecium 6A after incubation in air at 35 degree C for 24 hr using agar dilution method
- Assay type: functional
Reported MIC values for a set of molecules
// note: answer is a bare numeric in µg/mL

Below, 6 molecules whose answers are already recorded.
INSERT INTO assay_data (molecule, study_system, quantity_unit, measured_value) VALUES
  ('CC(=O)NC[C@H]1CN(c2ccc(N3CCN(Cc4ccc(C#N)o4)CC3)c(F)c2)C(=O)O1', 'Enterococcus faecium', 'µg/mL', 16),
  ('CC(=O)NC[C@H]1CN(c2ccc(N3CCN(Cc4ccc([N+](=O)[O-])[nH]4)CC3)c(F)c2)C(=O)O1', 'Enterococcus faecium', 'µg/mL', 4),
  ('CC(=O)NC[C@H]1CN(c2ccc(N3CCOCC3)c(F)c2)C(=O)O1 [LINEZOLID]', 'Enterococcus faecium', 'µg/mL', 2),
  ('CC(=O)NC[C@H]1CN(c2ccc(N3CCN(Cc4ccc([N+](=O)[O-])o4)CC3)c(F)c2)C(=O)O1.Cl [RANBEZOLID CHLORIDE]', 'Enterococcus faecium', 'µg/mL', 2),
  ('CC(=O)NC[C@H]1CN(c2ccc(N3C[C@@H]4[C@@H](CN(C)c5ccc([N+](=O)[O-])o5)[C@@H]4C3)c(F)c2)C(=O)O1', 'Enterococcus faecium', 'µg/mL', 2),
  ('CC(=O)NC[C@H]1CN(c2ccc(N3C[C@@H](C)N(Cc4ccc([N+](=O)[O-])o4)[C@@H](C)C3)c(F)c2)C(=O)O1', 'Enterococcus faecium', 'µg/mL', 8);

Kindly review the next molecule as well.
Report measured MIC; entry is CC(=O)NC[C@H]1CN(c2ccc(N3C[C@@H]4[C@H](C3)[C@H]4N(C)c3ccc([N+](=O)[O-])o3)c(F)c2)C(=O)O1 2

---

- Tested on: Staphylococcus aureus
- ASSAY_NOTES: In vivo effective dose (on day 7-post-infection) against methicillin-resistant Staphylococcus aureus 562 infected mice upon peroral administration at 30 min and 4 hr post-infection
- Format: functional
- CONDITION_LABEL: po
PARAMETER: ED50 (mg/kg)
Number only, in mg/kg; omit the unit.

INSERT INTO results (smiles_text, quantity_unit, measured_value) VALUES
  ('CC(=O)NC[C@H]1CN(c2ccc(N3CCOCC3)c(F)c2)C(=O)O1', 'mg/kg', 5.6),
  ('CN[C@H](CC(C)C)C(=O)N[C@H]1C(=O)N[C@@H](CC(N)=O)C(=O)N[C@H]2C(=O)N[C@H]3C(=O)N[C@H](C(=O)N[C@H](C(=O)O)c4cc(O)cc(O)c4-c4cc3ccc4O)[C@H](O)c3ccc(c(Cl)c3)Oc3cc2cc(c3O[C@@H]2O[C@H](CO)[C@@H](O)[C@H](O)[C@H]2O[C@H]2C[C@](C)(N)[C@H](O)[C@H](C)O2)Oc2ccc(cc2Cl)[C@H]1O', 'mg/kg', 8.8);

Next:
Please supply the value of reported ED50 for the item CC(=O)NC[C@H]1CN(c2ccc(N3CCC(N(C)c4ccc([N+](=O)[O-])o4)CC3)c(F)c2)C(=O)O1 7.43

---

Reported values of MIC for individual entries
- System: Enterococcus faecium
- ASSAY_NOTES: In vitro minimum inhibitory concentration against vancomycin-resistant Enterococcus faecium 6A after incubation in air at 35 degree C for 24 hr using agar dilution method
- Assay type: functional

The cases that follow already have their MIC on record.
INSERT INTO assay_data (smiles_text, measured_value) VALUES
  ('CC(=O)NC[C@H]1CN(c2ccc(N3CCN(Cc4ccc(C(=O)O)o4)CC3)c(F)c2)C(=O)O1', '> 16 mg/L'),
  ('CC(=O)NC[C@H]1CN(c2ccc(N3CCC(N(C)c4ccc([N+](=O)[O-])o4)CC3)c(F)c2)C(=O)O1', '0.5 mg/L');

For the compound CC(=O)NC[C@H]1CN(c2ccc(N3CCN(Cc4ccco4)CC3)c(F)c2)C(=O)O1 , report MIC. 8 mg/L

---

- Test system: Enterococcus faecium
- ASSAY_NOTES: In vitro minimum inhibitory concentration against vancomycin-resistant Enterococcus faecium 6A after incubation in air at 35 degree C for 24 hr using agar dilution method
- Type: functional
PARAMETER: MIC (µg/mL)
The reply should be a number in µg/mL, with the unit left off.

// worked examples, MIC included
INSERT INTO assay_data (compound, measured_value) VALUES
  ('CC(=O)NC[C@H]1CN(c2ccc(N3CCN(Cc4ccc([N+](=O)[O-])o4)CC3C)c(F)c2)C(=O)O1 (stereo partly drawn)', 4),
  ('CC(=O)NC[C@H]1CN(c2ccc(N3CCN(Cc4ccc([N+](=O)[O-])s4)CC3)c(F)c2)C(=O)O1', 8),
  ('CC(=O)NC[C@H]1CN(c2ccc(N3CCN(Cc4ccc(/C=N/N)o4)CC3)c(F)c2)C(=O)O1', 8);

Please look at the following compound next.
Tell me MIC reported for CC(=O)NC[C@H]1CN(c2ccc(N3CCC(Nc4ccc([N+](=O)[O-])o4)CC3)c(F)c2)C(=O)O1 0.5

---

- Tested on: Enterococcus faecium
- ASSAY_NOTES: In vitro minimum inhibitory concentration against vancomycin-resistant Enterococcus faecium 6A after incubation in air at 35 degree C for 24 hr using agar dilution method
- Type: functional
Property: MIC; scope: individual molecules

Known MIC results, listed for orientation:
INSERT INTO measurements (smiles_text, parameter, measured_value) VALUES
  ('CCOC(=O)c1ccc(CN2CCN(c3ccc(N4C[C@H](CNC(C)=O)OC4=O)cc3F)CC2)o1', 'MIC', '> 16 µg/mL'),
  ('CC(=O)NC[C@H]1CN(c2ccc(N3CCN(Cc4ccc(CO)o4)CC3)c(F)c2)C(=O)O1', 'MIC', '> 16 µg/mL'),
  ('CC(=O)NC[C@H]1CN(c2ccc(N3CCN(Cc4ccc(Cl)o4)CC3)c(F)c2)C(=O)O1', 'MIC', '> 16 µg/mL');

Name the value of MIC reported for CC(=O)NC[C@H]1CN(c2ccc(N3CCN(Cc4ccc(Br)o4)CC3)c(F)c2)C(=O)O1 when tested on Enterococcus faecium. > 16 µg/mL
